assayed-target: BK channel (large-conductance Ca2+-activated K+ channel, BKCa, KCa1.1) (Homo sapiens)
Sequence (Q12791 whole entry): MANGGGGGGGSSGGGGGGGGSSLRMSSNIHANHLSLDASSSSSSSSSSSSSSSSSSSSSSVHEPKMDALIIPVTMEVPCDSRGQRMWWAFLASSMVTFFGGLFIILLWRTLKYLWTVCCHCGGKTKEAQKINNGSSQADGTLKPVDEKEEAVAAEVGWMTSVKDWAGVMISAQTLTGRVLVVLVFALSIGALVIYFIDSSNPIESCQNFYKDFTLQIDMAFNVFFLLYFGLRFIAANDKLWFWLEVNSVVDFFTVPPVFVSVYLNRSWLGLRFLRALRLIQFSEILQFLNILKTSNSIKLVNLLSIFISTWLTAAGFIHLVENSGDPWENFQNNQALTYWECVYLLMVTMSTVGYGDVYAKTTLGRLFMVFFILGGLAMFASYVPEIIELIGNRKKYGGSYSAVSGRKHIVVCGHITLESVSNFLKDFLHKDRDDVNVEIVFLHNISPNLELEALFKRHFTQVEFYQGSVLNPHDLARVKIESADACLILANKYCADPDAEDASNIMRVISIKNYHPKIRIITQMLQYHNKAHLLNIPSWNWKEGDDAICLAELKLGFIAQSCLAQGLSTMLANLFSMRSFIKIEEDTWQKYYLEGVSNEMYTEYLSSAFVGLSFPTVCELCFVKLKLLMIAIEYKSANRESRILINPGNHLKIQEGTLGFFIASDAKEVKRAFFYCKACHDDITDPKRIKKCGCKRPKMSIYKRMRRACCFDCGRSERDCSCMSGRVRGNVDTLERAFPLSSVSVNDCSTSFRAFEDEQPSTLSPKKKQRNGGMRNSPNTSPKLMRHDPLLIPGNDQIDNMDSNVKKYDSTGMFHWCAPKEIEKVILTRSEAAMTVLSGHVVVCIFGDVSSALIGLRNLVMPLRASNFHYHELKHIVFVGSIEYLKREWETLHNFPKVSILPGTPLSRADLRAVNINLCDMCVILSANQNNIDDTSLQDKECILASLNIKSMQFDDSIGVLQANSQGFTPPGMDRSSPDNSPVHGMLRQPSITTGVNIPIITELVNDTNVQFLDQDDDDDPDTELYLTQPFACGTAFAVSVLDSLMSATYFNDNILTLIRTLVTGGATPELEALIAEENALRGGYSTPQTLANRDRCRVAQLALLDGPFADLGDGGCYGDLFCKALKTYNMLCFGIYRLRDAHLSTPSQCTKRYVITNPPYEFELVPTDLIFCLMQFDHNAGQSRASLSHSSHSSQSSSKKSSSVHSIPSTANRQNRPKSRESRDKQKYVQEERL
experimental-details: whole-cell patch clamp of T-type-activated BK current in LNCaP-α1H cells ([…] in LNCaP-NE cells)
measured-endpoint: pIC50
In textbook form, pIC50 equals minus log to base ten of the concentration in mol/L.

Report pIC50, nothing else, for this compound: CC[N+](CC)(CC)CC
2.94
